Experimental target: T1, CRBN, Q96SW2;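 also: pooled lentiviral library of zinc finger degron-EGFP fusions in mCherry-positive Jurkat cells, FACS-sorted after compound exposure, with degron abundance counted by next-generation sequencing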
T1 chain: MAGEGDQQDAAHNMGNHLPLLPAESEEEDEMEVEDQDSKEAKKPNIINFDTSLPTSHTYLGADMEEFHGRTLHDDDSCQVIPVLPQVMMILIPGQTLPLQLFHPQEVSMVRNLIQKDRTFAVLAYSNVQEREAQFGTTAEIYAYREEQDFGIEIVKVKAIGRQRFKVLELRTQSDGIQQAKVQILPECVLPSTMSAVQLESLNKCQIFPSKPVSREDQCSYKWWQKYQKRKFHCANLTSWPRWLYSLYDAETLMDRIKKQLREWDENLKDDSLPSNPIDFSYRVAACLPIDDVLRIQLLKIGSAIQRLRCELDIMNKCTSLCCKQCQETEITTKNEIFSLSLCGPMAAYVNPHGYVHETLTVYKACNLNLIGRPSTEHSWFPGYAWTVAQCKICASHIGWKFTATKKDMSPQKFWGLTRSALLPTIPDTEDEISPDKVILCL
Assay comment: log2 fold change of degron read counts, EGFP-low vs EGFP+ sorted cells (limma voom), compound-induced degradation; higher = more compound-induced degradation of the degron-EGFP fusion; degrons are variants of IKZF1/3 zinc finger 2; compound dose not given here
Cond: Jurkat; 18 h; compound: compound 22 (5-morpholino-thalidomide)
The full ranking holds about 8,300 sequences; the median of “log2 fold change of degron read counts, EGFP-low vs EGFP+ sorted cells (limma voom), compound-induced degradation” is about -1.1, and the highest 2% start at about 3.2. The entries come from a sample that favours the highest values as a whole.
Measurement name: log2 fold change of degron read counts

FNCDICGAPFTQKGNLLRHIKL [46F_47N_49D_50I_52G_53A_54P_55F_67L_, Q9UKT9]
1.25
FTCDICGAPFTQKGNLLRHIKL [46F_47T_49D_50I_52G_53A_54P_55F_67L_, Q9UKT9]
2.86
FQCDQCGANFTQKGNLLRHIKL [46F_47Q_49D_50Q_52G_53A_54N_55F_67L_, Q9UKT9]
-1.96
